Assay: P-glycoprotein substrates identified in KB-3-1 adenocarcinoma cell line, qHTS therapeutic library screen (AID 1346986); note: nearly all actives have a fitted effect of over 60% in size
Settings: KB-3-1 parental cells viability, CellTiter-Glo, 72 h; series mostly up to 44.5 µM
Experimental: The ATP-binding cassette transporters P-glycoprotein (P-gp) is known to limit brain penetration of many chemotherapy drugs. […] All cell lines were plated into 1536-well plates at 500 cells/well in 5 uL media. […] CellTiter-Glo reagent (Promega) was dispensed into the wells, incubated for 5 min and luminescence was read on a ViewLux instrument (Perkin-Elmer). […]
Records with an inconclusive call do not appear. Active and inactive are the calls of the source. Calls come from the whole dose curve; as a rule, active = well fitted inhibition curve with a large enough effect; inconclusive = small, poorly fitted or top-dose-only effect; inactive = no such curve, though single readings can be large or run the other way.
Outcome codes: active, inactive

compound=C=CC(=O)Nc1cccc(Nc2nc(Nc3ccc(NC4CN(CCF)C4)cc3OC)ncc2C(F)(F)F)c1 class_label=active
compound="CC(=O)Nc1nc(C)c(-c2nc(N3CCCC(O)C3)no2)s1 (centres undefined)" class_label=active
compound="CCC(C)C(=O)OC12C(OC(C)=O)C(C)C3(O)C(C=C(CO)CC4(O)C(=O)C(C)=CC43)C1C2(C)C (centres undefined)" class_label=inactive
compound=CN(C)c1ccc(NC(=O)NS(=O)(=O)c2ccc(Cl)cc2)cc1 class_label=inactive
compound="Cc1cn2cc(C(=O)N(C)CCO)cc(NC3CCOc4cccc(C)c43)c2n1 (centres undefined)" class_label=inactive
compound=O=C(Cc1c(F)cccc1F)Nc1cc(OCc2ccc(Cl)cc2)ccn1 class_label=inactive
compound=O=C(Nc1ccccc1C(=O)Nc1ccc(CCO)cc1)c1ccc([N+](=O)[O-])cc1 class_label=inactive
compound="C/C=C(/C=C(C)/C=C/C=C/C=C(\\C)C(=O)C12OC1C(O)(CCO)NC2=O)C(=O)OC (centres undefined)" class_label=inactive
compound=C=CC(=O)N1CCC(Oc2cc3c(Nc4ccc(Cl)c(Cl)c4F)ncnc3cc2OC)CC1 class_label=active
compound="C=C1CCC2[C@](C)(CCC[C@@]2(C)C=O)[C@H]1CC/C(C)=C/CO (some centres undefined)" class_label=inactive
compound="CN(CC1COCCO1)S(=O)(=O)Nc1ccc2ccc3ncc(-c4cnn(C)c4)cc3c(=O)c2c1 (centres undefined)" class_label=active
compound=Nc1nc2c(nc(Br)n2[C@@H]2O[C@@H]3COP(=O)(O)O[C@H]3[C@H]2O)c(=O)[nH]1 class_label=inactive
compound=Cc1cccc(N2CCN(C(=O)c3cc(S(=O)(=O)N(C)C)ccc3N3CCCC3)CC2)c1C class_label=inactive
compound=O=C1NC(=O)C(c2cnc3ccccn23)=C1c1cn2c3c(cc(F)cc13)CN(C(=O)N1CCCCC1)CC2 class_label=active
compound="COC1C(OC(=O)/C=C/C=C/C=C/C=C/C(=O)O)CCC2(CO2)C1C1(C)OC1CC=C(C)C (centres undefined)" class_label=inactive
compound=C=C1[C@H]2CC[C@H](C(=O)O)[C@@]23CC[C@H](C3)C1(C)C class_label=inactive
compound=Cc1nc(NC(=O)N2CCC[C@H]2C(N)=O)sc1-c1ccnc(C(C)(C)C(F)(F)F)c1 class_label=active
compound="CC(=O)O[C@@H]1CC2C(C)(C)C(=O)C=C[C@]2(C)C2CC[C@@]3(C)[C@H](c4ccoc4)OC(=O)[C@H]4O[C@]43[C@@]21C (some centres undefined)" class_label=inactive
compound="COc1ccc(C2=NC(c3ccc(Cl)cc3)C(c3ccc(Cl)cc3)N2C(=O)N2CCNC(=O)C2)c(OC(C)C)c1 (centres undefined)" class_label=inactive

###

biological target: Luciferin 4-monooxygenase (Photinus pyralis) (UniProt P08659); assay: Primary firefly luciferase (FLuc) qHTS assay for identification of artifact compounds. (AID 1845220); conditions: purified firefly luciferase, luminescence, 5 min; series mostly up to 54.1 µM; note: nearly all actives have a fitted effect of over 60% in size;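 for activity change, negative = inhibition: plate controls were DMSO vehicle for no effect and no enzyme for full effect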
The source made the active and inactive calls. The call rests on the fitted dose curve; in most records, active means well fitted inhibition curve with a large enough effect; inconclusive means small, poorly fitted or top-dose-only effect; inactive means flat fitted curve, though single readings scatter.
ENDPOINT NAME: activity change, negative = inhibition

compound="COc1ccc(CCc2nc3cc(-c4c(C)noc4C)ccc3n2CC(C)N2CCOCC2)cc1Cl (stereo not given)" target="Luciferin 4-monooxygenase (Photinus pyralis) (UniProt P08659)" value_measured=inactive
compound=COc1c(C)cc(NC(=O)c2nn(Cc3ccc(F)cc3)c3c2CN(C(=O)c2ccc[nH]2)C[C@]3(C)C(N)=O)cc1C target="Luciferin 4-monooxygenase (Photinus pyralis) (UniProt P08659)" value_measured="2.65% [at 11.6 µM] (inactive)"
compound=Cc1cc(C)cc(-c2cnc3cc(Cl)c(-c4cccc(O)c4)cc3c2OCCCN)c1 target="Luciferin 4-monooxygenase (Photinus pyralis) (UniProt P08659)" value_measured=inactive
compound=CC(=O)OC[C@]12[C@H](OC(C)=O)[C@H](OC(=O)c3ccccc3)[C@@H]3[C@@H](OC(C)=O)[C@]1(OC3(C)C)[C@H](C)C[C@H](OC(C)=O)[C@@H]2OC(=O)c1ccccc1 target="Luciferin 4-monooxygenase (Photinus pyralis) (UniProt P08659)" value_measured=inactive
compound=O=C(Nc1cc(C(F)(F)F)ccc1N1CCCCC1)c1ccncc1 target="Luciferin 4-monooxygenase (Photinus pyralis) (UniProt P08659)" value_measured=inactive
compound=O=C(NCc1nc2ccccc2c(=O)n1-c1ccc(F)cc1)Nc1ccc(Cl)c(C(F)(F)F)c1 target="Luciferin 4-monooxygenase (Photinus pyralis) (UniProt P08659)" value_measured=inactive
compound="C/C=C(\\C)C(=O)OC1C(C)C2(O)C(C=C(CO)CC3(O)C(=O)C(C)=CC32)C2C(C)(C)C12OC(C)=O (stereo not given)" target="Luciferin 4-monooxygenase (Photinus pyralis) (UniProt P08659)" value_measured=inactive
compound=N#CC(CCCN1CCN(/N=C/c2cccnc2)CC1)(c1ccccc1)c1ccccc1 target="Luciferin 4-monooxygenase (Photinus pyralis) (UniProt P08659)" value_measured=inactive
compound=CC(C)C[C@@H](N)C(=O)N[C@H]1C(=O)N[C@@H](CC(N)=O)C(=O)N[C@H]2C(=O)N[C@H]3C(=O)N[C@H](C(=O)N[C@H](C(=O)O)c4cc(O)cc(O)c4-c4cc3ccc4O)[C@H](O)c3ccc(c(Cl)c3)Oc3cc2cc(c3O[C@@H]2O[C@H](CO)[C@@H](O)[C@H](O)[C@H]2O[C@H]2C[C@](C)(N)[C@H](O)[C@H](C)O2)Oc2ccc(cc2Cl)[C@H]1O target="Luciferin 4-monooxygenase (Photinus pyralis) (UniProt P08659)" value_measured=inactive
compound=C=C1/C(=C/C=C2\CCC[C@]3(C)[C@@H]([C@H](C)CC[C@@H](O)C(C)(C)O)CC[C@@H]23)C[C@@H](O)C[C@@H]1O target="Luciferin 4-monooxygenase (Photinus pyralis) (UniProt P08659)" value_measured=inactive
compound="COc1ccccc1OCCNCC(O)CCOc1cccc2[nH]c3ccccc3c12 (stereo not given)" target="Luciferin 4-monooxygenase (Photinus pyralis) (UniProt P08659)" value_measured=inactive
compound=N#C/C(=C1\Nc2ccccc2S1)c1ccnc(NCCc2cccnc2)n1 target="Luciferin 4-monooxygenase (Photinus pyralis) (UniProt P08659)" value_measured=inactive
compound=Cc1ccnn1-c1ccc(C(=O)N2CCN(S(=O)(=O)c3ccc(Cl)c(C(F)(F)F)c3)CC2)cc1 target="Luciferin 4-monooxygenase (Photinus pyralis) (UniProt P08659)" value_measured=inactive
compound=COc1ccc(CN2CCN(CCCSc3cc(C(C)(C)C)c(O)c(C(C)(C)C)c3)CC2)c(OC)c1OC target="Luciferin 4-monooxygenase (Photinus pyralis) (UniProt P08659)" value_measured="3.48% [at 11.6 µM] (inactive)"
compound="COC1C(O)C(OC2CCC3(C)C(CCC45CCC6C7(COC(=O)C7)OC4(O)C6(C)CCC35)C2)OC(C)C1OC1OC(CO)C(OC2OC(CO)C(O)C(O)C2O)C(O)C1O (stereo not given)" target="Luciferin 4-monooxygenase (Photinus pyralis) (UniProt P08659)" value_measured="0.42% [at 11.6 µM] (inactive)"

###

System: Hek293T
Experiment: Primary qHTS to identify gynecologic anti-cancer compounds using libraries of approved drugs and bioactive compounds (AID 1345084); note: nearly all actives have a fitted effect of over 55% in size
Settings: Gynecologic cancer cell panel viability, ATPlite luminescence, 48 h, control line for the selectivity index; series mostly up to 57.5 µM
Description: National Center for Advancing Translational Sciences [NCATS] Assay Overview: Chemotherapeutic drug responses vary from cancer to cancer and from patient to patient. […] ATPlite is a luminescence based assay reliant on the conversion of a luciferase substrate to light in the presence of ATP. As a cytotoxic compound will suppress growth and decrease the number of cells, the concentration of ATP will decrease, and less light signal will be detected in the well. […]
Results filed as inconclusive are left out. The source made the active and inactive calls. The call rests on the fitted dose curve; in most records, active means well fitted cell-killing curve with a large enough effect; inconclusive means small, poorly fitted or top-dose-only effect, or effect the other way; inactive means flat fitted curve, though single readings scatter.
Classes used: y (active), n (inactive)

compound=Clc1ncoc1-c1c[nH]c2ccccc12 class_label=n
compound=CC(C)=CCc1cc2c(cc1O)OC[C@H]1c3ccc(O)cc3O[C@@H]21 class_label=n
compound="C[C@@H]1CC[C@]2(C(=O)O)CC[C@]3(C)C(=CCC4[C@@]5(C)CC[C@H](O)[C@](C)(C(=O)O)C5CC[C@]43C)C2[C@]1(C)O (stereo not given in full)" class_label=n
compound=CC#C[C@@H](CC(=O)O)c1ccc(OCc2cccc(-c3ccc(C(F)(F)F)cc3)c2)cc1 class_label=n
compound=CCOC(=O)c1ccc(OCCC2CCN(c3ccc(C)nn3)CC2)cc1 class_label=n
compound=CCOC(=O)c1cnc2ccc(-c3cncc(NS(=O)(=O)c4ccccc4)c3)cn12 class_label=y
compound=CC(C)(C)C1CCN(C(=O)n2ncc(C(O)(c3ccccc3)c3ccccc3)n2)CC1 class_label=n
compound=Nc1nc2c(nc(Br)n2[C@@H]2O[C@@H]3COP(=O)(O)O[C@H]3[C@H]2O)c(=O)[nH]1 class_label=n
compound=COc1ccc(-n2c(SCCCN3C(=O)c4cccc5cccc(c45)C3=O)nnc2-c2ccncc2)cc1 class_label=n
compound=CCCNCCc1ccc(NS(=O)(=O)c2ccc(OC(F)(F)F)cc2)cc1 class_label=n
